Just for reference, paper PMC11672854 is where these values come from.

molecular target: anti-AGR2 monoclonal antibody MAb-15 (VH-VL of scFv-15 in a full human IgG1 backbone); experiment: ELISA; conditions: chain shown with the change; point at 1000 pM mAb-15 (highest concentration); plate coated with the AGR2 mutant; parent: est. 2.8; read off a plot
Sequence (chain, as listed by the source, chain 1 of 2): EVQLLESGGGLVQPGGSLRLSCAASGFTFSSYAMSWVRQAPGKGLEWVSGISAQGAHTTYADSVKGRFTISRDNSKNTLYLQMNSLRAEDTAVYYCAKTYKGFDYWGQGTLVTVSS
Sequence (chain, as listed by the source, chain 2 of 2): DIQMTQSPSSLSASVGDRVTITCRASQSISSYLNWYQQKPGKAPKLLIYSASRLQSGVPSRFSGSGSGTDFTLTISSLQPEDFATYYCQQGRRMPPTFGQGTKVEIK
Metric Name: response (OD450)
API: value field is a number in OD450; no unit string.

Exercise: Which measured response value corresponds to Anterior Gradient-2 (AGR2/PDIA17), AGR2 (21-175), 6x-His tag removed, O95994 E60A (protein) RDTTVKPGAKKDTKDSRPKLPQTLSRGWGDQLIWTQTYEAALYKSKTSNKPLMIIHHLDECPHSQALKKVFAENKEIQKLAEQFVLLNLVYETTDKHLSPDGQYVPRIMFVDPSLTVRADITGRYSNRLYAYEPADTALLLDNMKKALKLLKTEL ?
Key: 2.3

Exercise: // next record Anterior Gradient-2 (AGR2/PDIA17), AGR2 (21-175), 6x-His tag removed, O95994 C81A; S84A (protein) RDTTVKPGAKKDTKDSRPKLPQTLSRGWGDQLIWTQTYEEALYKSKTSNKPLMIIHHLDEAPHAQALKKVFAENKEIQKLAEQFVLLNLVYETTDKHLSPDGQYVPRIMFVDPSLTVRADITGRYSNRLYAYEPADTALLLDNMKKALKLLKTEL
Key: 2.3

Exercise: // next record Anterior Gradient-2 (AGR2/PDIA17), AGR2 (21-175), 6x-His tag removed, O95994 C81A (protein) RDTTVKPGAKKDTKDSRPKLPQTLSRGWGDQLIWTQTYEEALYKSKTSNKPLMIIHHLDEAPHSQALKKVFAENKEIQKLAEQFVLLNLVYETTDKHLSPDGQYVPRIMFVDPSLTVRADITGRYSNRLYAYEPADTALLLDNMKKALKLLKTEL
Key: 2.8

Exercise: // next record Anterior Gradient-2 (AGR2/PDIA17), AGR2 (21-175), 6x-His tag removed, O95994 S84A (protein) RDTTVKPGAKKDTKDSRPKLPQTLSRGWGDQLIWTQTYEEALYKSKTSNKPLMIIHHLDECPHAQALKKVFAENKEIQKLAEQFVLLNLVYETTDKHLSPDGQYVPRIMFVDPSLTVRADITGRYSNRLYAYEPADTALLLDNMKKALKLLKTEL
Key: 2.7
